- Test system: P388 leukemia ip, CD2F1 mice, survival T/C
- EXPERIMENTAL DETAILS: NCI In Vivo Anticancer Drug Screen. Data for tumor model P388 Leukemia (intraperitoneal) in CD2F1 (CDF1) mice
- CONDITION SET: endpoint: median survival time; dose: 100.0 mg/kg/injection; schedule: Q01DX005 (ip); vehicle: Klucel (hydroxypropylcellulose) (HPC); higher = longer survival
Inconclusive results and toxic doses are left out.
compounds and their reported T/C

Before answering, review these 5 worked examples.
# COMPOUND, MEASUREMENT
records = [
    ("COc1cc(-c2nn(CN3CCOCC3)c(=S)n2C)cc(OC)c1OC", "103 % of control"),
    ("COc1cc(C(=O)c2ccc3c(c2)OCO3)cc(OC)c1OC", "93 % of control"),
    ("C/C(=N\\NC(=S)Nc1ccc(S(=O)(=O)O)cc1)c1ccccn1", "108 % of control"),
    ("COCN(C)N=Nc1ccc(C(C)=O)cc1", "104 % of control"),
    ("Nc1ccc(N)c2c1C(=O)c1c(N)ccc(N)c1C2=O", "100 % of control"),
]

Input: Sample Cc1ccc(C(=O)/C([S-])=C(\Nc2cccc(Cl)c2)[n+]2ccccc2)cc1 — what was its T/C?
Output: 98 % of control

Input: Lookup Cc1ccc([B-]23OCC[N+]2(CNC(=O)c2ccccc2O)CCO3)cc1 (stereo unspecified)
Output: 108 % of control

Input: Lookup N#C/C(=C/C=C/c1ccccc1)c1ccccc1
Output: 102 % of control

Input: Lookup CCN(CC)P1(=O)OC(c2ccccc2)=CCN1c1ccc(OC)cc1 (stereo unspecified)
Output: 110 % of control

Input: Lookup O=c1c(I)cn(CC(O)CO)c(=O)n1CC(O)CO (stereo unspecified)
Output: 100 % of control

Input: Lookup CC1=CC(=O)N2CC(=O)N(C)c3ccc(Cl)cc3C2(c2ccccc2)O1 (stereo unspecified)
Output: 92 % of control

This collection of values is drawn from PubChem BioAssay AID330.
